- Tested on: K562 human leukemia cell line
- assay: In vitro anti-cancer efficacy, K562, trypan blue dye exclusion, 48 hours
- Assay type: cell-based
- run-conditions: Table 1; 48 hours
Decide using K562 IC50: a value greater than or equal to 10 µg/mL is Y, a smaller one is N.

> print(dat)
                                   compound  class.assignment
1  CC(C)CCCCCCCCCCCCc1ccc(O)c(O)c1O [Compound 24]                 Y

Textbook exercise: given the entry CCC(C)CCCCCCCCCCCc1ccc(O)cc1O (stereo not shown) [Compound 23] , state whether its K562 IC50 is greater than or equal to 10 µg/mL. N

Textbook exercise: given the entry CC(C)CCCCCCCCCCCCc1ccc(O)cc1O [Compound 21] , state whether its K562 IC50 is greater than or equal to 10 µg/mL. N

Textbook exercise: given the entry CC(C)CCCCCCCCCCC(=O)c1ccc(O)cc1O [Compound 18] , state whether its K562 IC50 is greater than or equal to 10 µg/mL. N
